Where these numbers come from: patent US20240228476A1

Tested on: B16-F10 cells
Experiment: Cell proliferation assay (CellTiter-Glo) in B16-F10 cells with IFN-gamma
Format: cell-based
Conditions: mouse IFN-gamma 10 ng/mL, read-out: PTPN2 Prolif 5d B16F10 EC50
Measured Endpoint: EC50 (µM)
// return numeric value only (unit: µM, not printed)

Notebook: 6-[[3-fluoro-5-hydroxy-4-(1,1,4-trioxo-1,2,5-thiadiazolidin-2-yl)phenyl]methylamino]-4-methyl-pyridine-3-carbonitrile [EXAMPLE 5] , EC50 read as 4.76

====

Recorded pIC50 by entry
Target: PTPN2 (Homo sapiens, UniProt P17706)
Sequence (P17706 whole entry): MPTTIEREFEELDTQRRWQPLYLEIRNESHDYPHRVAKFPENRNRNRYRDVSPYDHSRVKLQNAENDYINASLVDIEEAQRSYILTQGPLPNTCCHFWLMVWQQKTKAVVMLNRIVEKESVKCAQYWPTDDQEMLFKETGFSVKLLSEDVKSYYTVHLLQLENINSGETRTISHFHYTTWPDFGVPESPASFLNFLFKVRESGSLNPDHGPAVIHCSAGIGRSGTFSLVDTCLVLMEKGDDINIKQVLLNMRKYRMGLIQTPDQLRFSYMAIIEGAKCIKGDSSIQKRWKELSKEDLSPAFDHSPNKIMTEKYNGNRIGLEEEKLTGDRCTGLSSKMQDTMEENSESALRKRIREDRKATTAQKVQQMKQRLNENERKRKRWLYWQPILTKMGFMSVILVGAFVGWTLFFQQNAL
Test: Phosphatase activity assay using DiFMUP as substrate
Type: biochemical
Set-up: purchased MilliporeSigma SRP5075
Details: 10 mM DTT, PTPN2 0.15 nM, room temperature, read-out: PTPN2 BCHEM DIFMUP IC50
Please keep in mind that pIC50 is minus log10 of the molar concentration; only the number is needed.

[[record]]
cpd_smiles = "COc1ncc(C)c(NCc2cc(O)c(N3CC(=O)NS3(=O)=O)c(F)c2)n1"
target_under_test = "PTPN2 (Homo sapiens, UniProt P17706)"
measured_endpoint = "pIC50"
reported_measurement = 7.30

[[record]]
cpd_smiles = "Cc1nccc(NCc2cc(O)c(N3CC(=O)NS3(=O)=O)c(F)c2)n1"
target_under_test = "PTPN2 (Homo sapiens, UniProt P17706)"
measured_endpoint = "pIC50"
reported_measurement = 7.52

[[record]]
cpd_smiles = "COc1cncc(NCc2cc(O)c(N3CC(=O)NS3(=O)=O)c(F)c2)n1"
target_under_test = "PTPN2 (Homo sapiens, UniProt P17706)"
measured_endpoint = "pIC50"
reported_measurement = 7.70


Turning to the following molecule.
For this molecule ( CC(C)(C)c1ccc(Oc2ccc(NCc3cc(O)c(N4CC(=O)NS4(=O)=O)c(F)c3)cn2)cc1 ), measured pIC50 is 7.22
